Just for reference, PubChem BioAssay (EPA / NIEHS) is where these values come from.

Here the recorded AC50 is given for each entry.
tested_on: human Matrix Metalloproteinase-9 (MMP9), MMP9 (gene 4318)
method_notes: NVS_ENZ_hMMP9: NovaScreen (NVS) Enzymatic Assay for human Matrix Metalloproteinase-9 (MMP9) (AID 2283190);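 also: cell-free recombinant MMP9 protease activity read by fluorescent substrate signal; active means inhibition seen as loss of fluorescence signal versus DMSO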
Results filed as inconclusive are left out. Activity calls are given as the source filed them. The calls were made as follows: active = hit-call score of the fitted dose curve at least 0.9, where 1 is the maximum; inconclusive = response in the unintended direction; inactive = score below 0.9.

Consider the following illustrative entries.
- given_smiles: "CCC(C)=O"
  AC50: "6.96 µM (active)"
- given_smiles: "NC(=S)NNC(N)=S"
  AC50: "3.45 µM (active)"

Switching to the query record.
[in] Which AC50 is reported with human Matrix Metalloproteinase-9 (MMP9), MMP9 (gene 4318) for this entry: CCOCCOCCOCC ?
[out] 15.4 µM (active)

====

method_notes: ATG_M_06_TRANS: Attagene TRANS-FACTORIAL HepG2 Assay for M06 Transcription Factor (Internal Marker) (AID 2282983);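 also: reporter transcript level by RT-PCR then capillary electrophoresis fluorescence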
condition_notes: HepG2 Attagene TRANS M06 internal marker reporter
Inconclusive results are not listed. Active and inactive are the calls of the source. The calls were made as follows: active = hit-call score of the fitted dose curve at least 0.9, where 1 is the maximum; inconclusive = response in the unintended direction; inactive = score below 0.9.
value_kind: outcome

Consider the following illustrative entries.
- compound: "CC(C)OCCO"
  outcome: "inactive"
- compound: "NC1CCCCC1N (stereo unspecified)"
  outcome: "inactive"
- compound: "CCC(C)=O"
  outcome: "inactive"
- compound: "CCc1ncc(C)[nH]1"
  outcome: "inactive"
- compound: "C=CC(=O)OCCC#N"
  outcome: "inactive"
- compound: "CC1(C)C2=CCCC(C)(C)[C@]23CC[C@H]1C3"
  outcome: "inactive"

[in] Record request: outcome value, item CCCCCCCCCCCCN1CCCCCC1=O
[out] inactive

[in] Record request: outcome value, item O=C(O)c1ccc(O)cc1
[out] inactive

[in] Record request: outcome value, item CCCCCCOCCOCCO
[out] inactive

[in] Record request: outcome value, item Cc1ncc([N+](=O)[O-])n1CCO
[out] inactive

[in] Record request: outcome value, item CCCSc1ccc2nc(NC(=O)OC)[nH]c2c1
[out] inactive

====

method_notes: ATG_NFI_CIS: Attagene CIS-FACTORIAL HepG2 Assay for human Nuclear Factor I (NFI) (AID 2282989)
condition_notes: HepG2 cis-regulatory reporter, NFI response element transcription; actives raise or lower the signal
Calls of active or inactive are those of the source. How the source made its calls: active means hit-call score of the fitted dose curve at least 0.9, where 1 is the maximum; inactive means score below 0.9.
Select the matching outcome among active, inactive

These solved cases illustrate the format of a correct answer.
- compound: "CC(C)CCOC(=O)c1ccccc1"
  label_class: "inactive"
- compound: "C[C@H](CCC(=O)NCC(=O)O)[C@H]1CC[C@H]2[C@@H]3[C@H](O)C[C@@H]4C[C@H](O)CC[C@]4(C)[C@H]3C[C@H](O)[C@]12C"
  label_class: "inactive"
- compound: "C=C(C)[C@H]1CC=C(C)C(=O)C1"
  label_class: "inactive"
- compound: "CC(=O)C1(C)CC2=C(CCCC2(C)C)CC1C (stereo unspecified)"
  label_class: "active"

[in] Answer briefly: the call reported for CCCCCCCCCCCC(=O)OCC(O)CO (stereo unspecified) in this assay.
[out] inactive

[in] Answer briefly: the call reported for CCCCCCCC(=O)OCC(O)CO (stereo unspecified) in this assay.
[out] inactive

====

Read-out: Interleukin-8 (IL8), CXCL8 (gene 3576)
method_notes: BSK_CASM3C_IL8: BioMAP Diversity Plus: CASM3C Assay for Interleukin-8 (IL8) Biomarker Activity (AID 2283042);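 also: IL-8 protein level quantified by ELISA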
condition_notes: primary human coronary artery smooth muscle cells; actives raise or lower the signal
Calls of active or inactive are those of the source. How the source made its calls: active means hit-call score of the fitted dose curve at least 0.9, where 1 is the maximum; inactive means score below 0.9.
Select the matching outcome among active, inactive

These solved cases illustrate the format of a correct answer.
- molecule: "CC(C)(C)CC(C)(C)c1ccc(OCCOCC[N+](C)(C)Cc2ccccc2)cc1"
  label_class: "active"
- molecule: "CC1(C)C2=CCCC(C)(C)[C@]23CC[C@H]1C3"
  label_class: "inactive"
- molecule: "C[C@@H]1CCN(C(=O)[C@H](CCCN=C(N)N)NS(=O)(=O)c2cccc3c2NC[C@H](C)C3)[C@@H](C(=O)O)C1"
  label_class: "inactive"
- molecule: "CS(=O)(=O)c1ccc(C2=C(c3ccccc3)C(=O)OC2)cc1"
  label_class: "inactive"

Could you now consider this next molecule?
[in] Answer briefly: the call reported for Oc1c(Cl)cc(Cl)c(Cl)c1Cc1c(O)c(Cl)cc(Cl)c1Cl in this assay.
[out] inactive

====

tested_on: Hypoxia-inducible factor 1-alpha (Homo sapiens)
method_notes: ATG_HIF1a_CIS: Attagene CIS-FACTORIAL HepG2 Assay for human Hypoxia Inducible Factor 1 (HIF1A) (AID 2282951)
condition_notes: HepG2 Attagene cis-factorial HIF1a reporter transcription; actives raise or lower the signal
The source made the active and inactive calls. Rule for the calls: active = hit-call score of the fitted dose curve at least 0.9, where 1 is the maximum; inactive = score below 0.9.
Select the matching outcome among active, inactive

- compound: "Oc1ccc2cc(SSc3ccc4cc(O)ccc4c3)ccc2c1"
  label_class: "active"
- compound: "C1=CC2C3C=CC(C3)C2C1 (configuration not stated)"
  label_class: "inactive"

[in] Answer briefly: the call reported for CCCCCCC(C)(C)S in this assay.
[out] inactive

[in] Answer briefly: the call reported for COc1ccc(CCO)cc1 in this assay.
[out] inactive

[in] Answer briefly: the call reported for CCN(CCC#N)c1ccc(N=Nc2ccc([N+](=O)[O-])cc2)cc1 in this assay.
[out] inactive

[in] Answer briefly: the call reported for CCCCCCOC(=O)C(C)C in this assay.
[out] inactive

====

Tested on: DIO2 (gene 1734)
method_notes: CCTE_GLTED_hDIO2: CCTE's human Deiodinase 2 (DIO2) Inhibition Assay, Great Lakes Toxicology and Ecology Division (GLTED) Lab (AID 2284050)
Calls of active or inactive are those of the source. Rule for the calls: active = hit-call score of the fitted dose curve at least 0.9, where 1 is the maximum; inconclusive = response in the unintended direction; inactive = score below 0.9.
Select the matching outcome among 1 (yes) = active, 0 (no) = inactive

- compound: "CCCCCCCCCCCCN1CCCCCC1=O"
  label_class: "1 (yes)"
- compound: "CCCCCCCCCCCCCC(=O)OCC(O)CO (stereo not drawn)"
  label_class: "1 (yes)"
- compound: "CCCCCCCCCCCCCCN(CCO)CCO"
  label_class: "1 (yes)"
- compound: "CCCCCC(C=O)=Cc1ccccc1"
  label_class: "1 (yes)"
- compound: "O=CCc1ccccc1"
  label_class: "0 (no)"

[in] Answer briefly: the call reported for COc1ccc(N=Nc2cc(C)c(N=Nc3ccc(S(=O)(=O)O)cc3)cc2OC)cc1 in this assay.
[out] 1 (yes)

[in] Answer briefly: the call reported for C=C1CC[C@H](O)C/C1=C/C=C1\CCC[C@]2(C)[C@@H]([C@H](C)/C=C/[C@H](C)C(C)C)CC[C@@H]12 in this assay.
[out] 1 (yes)

[in] Answer briefly: the call reported for CCOc1ccc(N=Nc2ccc(C=Cc3ccc(N=Nc4ccc(OCC)cc4)cc3S(=O)(=O)O)c(S(=O)(=O)O)c2)cc1 in this assay.
[out] 1 (yes)

====

tested_on: X-box-binding protein 1 (Homo sapiens) (UniProt P17861)
Sequence (P17861 whole entry, looked up): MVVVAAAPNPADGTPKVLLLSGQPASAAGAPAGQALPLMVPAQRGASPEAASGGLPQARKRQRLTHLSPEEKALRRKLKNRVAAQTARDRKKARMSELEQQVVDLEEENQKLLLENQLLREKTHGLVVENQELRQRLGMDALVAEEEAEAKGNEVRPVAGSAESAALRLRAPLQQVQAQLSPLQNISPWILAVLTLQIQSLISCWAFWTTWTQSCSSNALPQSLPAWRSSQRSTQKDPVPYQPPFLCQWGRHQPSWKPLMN
method_notes: ATG_Xbp1_CIS: Attagene CIS-FACTORIAL HepG2 Assay for human X-box Binding Protein 1 (XBP1) (AID 2282972)
condition_notes: HepG2 XBP1 cis-element reporter, Attagene multiplex; actives raise or lower the signal
The source made the active and inactive calls. The calls were made as follows: active = hit-call score of the fitted dose curve at least 0.9, where 1 is the maximum; inactive = score below 0.9.
value_kind: outcome

Consider the following illustrative entries.
- molecule: "C=C1CC[C@H](O)C/C1=C/C=C1\\CCC[C@]2(C)[C@@H]([C@H](C)/C=C/[C@H](C)C(C)C)CC[C@@H]12"
  outcome: "inactive"
- molecule: "CCCCCCC(C)(C)S"
  outcome: "inactive"
- molecule: "Cc1occc(=O)c1OC(=O)C(C)C"
  outcome: "inactive"
- molecule: "O=C(O)CCCCCCCCC(=O)O"
  outcome: "inactive"
- molecule: "C=CC(C)C#N (centres undefined)"
  outcome: "inactive"
- molecule: "CCCCCCCC(=O)OCCCCCC"
  outcome: "inactive"
- molecule: "C=Cc1ccc(C(C)(C)C)cc1"
  outcome: "inactive"
- molecule: "COS(=O)(=O)O"
  outcome: "inactive"

[in] Record request: outcome value, item [O-]n1ccccc1=S.[O-]n1ccccc1=S.[Zn+2]
[out] inactive

[in] Record request: outcome value, item CC/C=C\CC/C=C/CO
[out] inactive

[in] Record request: outcome value, item OCC#CCO
[out] inactive

====

tested_on: Retinoic acid receptor RXR-alpha (Homo sapiens) (UniProt P19793)
Sequence (P19793 whole entry, looked up): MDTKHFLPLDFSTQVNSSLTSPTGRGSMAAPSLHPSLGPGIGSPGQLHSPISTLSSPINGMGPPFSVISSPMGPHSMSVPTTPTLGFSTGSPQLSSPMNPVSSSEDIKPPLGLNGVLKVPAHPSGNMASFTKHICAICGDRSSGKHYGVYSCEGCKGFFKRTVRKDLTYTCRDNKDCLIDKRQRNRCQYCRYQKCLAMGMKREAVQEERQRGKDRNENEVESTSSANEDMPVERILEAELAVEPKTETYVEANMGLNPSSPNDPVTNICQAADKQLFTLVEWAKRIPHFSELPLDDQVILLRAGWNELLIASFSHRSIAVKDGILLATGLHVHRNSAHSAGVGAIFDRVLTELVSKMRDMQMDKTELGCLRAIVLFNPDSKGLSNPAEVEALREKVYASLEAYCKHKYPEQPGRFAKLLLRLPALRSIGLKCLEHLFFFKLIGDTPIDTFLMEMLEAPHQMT
method_notes: ATG_RXRa_TRANS: Attagene TRANS-FACTORIAL HepG2 Assay for human Retinoid X Receptor alpha (RXRa) (AID 2283012)
Records with an inconclusive call do not appear. The source made the active and inactive calls. How the source made its calls: active means hit-call score of the fitted dose curve at least 0.9, where 1 is the maximum; inconclusive means response in the unintended direction; inactive means score below 0.9.
Select the matching outcome among Y = active, N = inactive

These solved cases illustrate the format of a correct answer.
- compound: "Cc1ncc([N+](=O)[O-])n1CCO"
  tested_on: "Retinoic acid receptor RXR-alpha (Homo sapiens) (UniProt P19793)"
  label_class: "N"
- compound: "CCC(Cl)C(Cl)C(Cl)CC(Cl)C(Cl)C(C)Cl (centres undefined)"
  tested_on: "Retinoic acid receptor RXR-alpha (Homo sapiens) (UniProt P19793)"
  label_class: "N"
- compound: "OCC#CCO"
  tested_on: "Retinoic acid receptor RXR-alpha (Homo sapiens) (UniProt P19793)"
  label_class: "N"

Could you now consider this next compound?
[in] Answer briefly: the call reported for CC(C)NCC(O)COc1ccc(CC(N)=O)cc1 (centres undefined) in this assay.
[out] N
